conditions: 353.15 K; 101.33 kPa; Liquid
recorded-metric: viscosity (mPa·s)

# example entries with known answers
| compound | recorded-metric | test-value |
| --- | --- | --- |
| CCCCn1cc[n+](C)c1.N#CN=C=[N-] [1-butyl-3-methylimidazolium dicyanamide] | viscosity | 11 |
| CCn1cc[n+](C)c1.[Cl-] [1-ethyl-3-methylimidazolium chloride] | viscosity | 65 |
| CCCCCCn1cc[n+](C)c1.[Cl-] [1-hexyl-3-methylimidazolium chloride] | viscosity | 293 |
| CC(=O)[O-].CCCCn1cc[n+](C)c1 [1-butyl-3-methylimidazolium acetate] | viscosity | 26 |
| CCCCCCCC[n+]1ccn(C)c1.[Cl-] [1-methyl-3-octylimidazolium chloride] | viscosity | 375 |

P. CC(=O)[O-].CCn1cc[n+](C)c1 [1-ethyl-3-methylimidazolium acetate]
Q. CCCCn1cc[n+](C)c1.[Cl-] [1-butyl-3-methylimidazolium chloride]
Q: Of the two listed items, which has the higher viscosity? First: P Second: Q Choose, then provide that item's label.
Result: Q
(Q: 142 mPa·s, P: 17 mPa·s)

----------
conditions: 373.1 K; 101.33 kPa; Liquid
recorded-metric: viscosity (mPa·s)

# example entries with known answers
| compound | viscosity / mPa·s |
| --- | --- |
| CC(=O)[O-].CCn1cc[n+](C)c1 [1-ethyl-3-methylimidazolium acetate] | 9 |
| CCCCCCn1cc[n+](C)c1.[Cl-] [1-hexyl-3-methylimidazolium chloride] | 87 |

I. CCn1cc[n+](C)c1.[Cl-] [1-ethyl-3-methylimidazolium chloride]
II. CCCCCCCC[n+]1ccn(C)c1.[Cl-] [1-methyl-3-octylimidazolium chloride]
III. CCCCn1cc[n+](C)c1.N#CN=C=[N-] [1-butyl-3-methylimidazolium dicyanamide]
IV. CCCCn1cc[n+](C)c1.[Cl-] [1-butyl-3-methylimidazolium chloride]
V. CC(=O)[O-].CCCCn1cc[n+](C)c1 [1-butyl-3-methylimidazolium acetate]
Q: List items by viscosity in falling order. Reply: labels, ordered per the request.
Result: II, IV, I, V, III
(II: 161 mPa·s, IV: 68 mPa·s, I: 27 mPa·s, V: 15 mPa·s, III: 6 mPa·s)
